pIC50 values, listed per item
target entity: α4β1 integrin (Homo sapiens (Human), UniProt P05556+P13612)
Sequence (P13612 34-1032): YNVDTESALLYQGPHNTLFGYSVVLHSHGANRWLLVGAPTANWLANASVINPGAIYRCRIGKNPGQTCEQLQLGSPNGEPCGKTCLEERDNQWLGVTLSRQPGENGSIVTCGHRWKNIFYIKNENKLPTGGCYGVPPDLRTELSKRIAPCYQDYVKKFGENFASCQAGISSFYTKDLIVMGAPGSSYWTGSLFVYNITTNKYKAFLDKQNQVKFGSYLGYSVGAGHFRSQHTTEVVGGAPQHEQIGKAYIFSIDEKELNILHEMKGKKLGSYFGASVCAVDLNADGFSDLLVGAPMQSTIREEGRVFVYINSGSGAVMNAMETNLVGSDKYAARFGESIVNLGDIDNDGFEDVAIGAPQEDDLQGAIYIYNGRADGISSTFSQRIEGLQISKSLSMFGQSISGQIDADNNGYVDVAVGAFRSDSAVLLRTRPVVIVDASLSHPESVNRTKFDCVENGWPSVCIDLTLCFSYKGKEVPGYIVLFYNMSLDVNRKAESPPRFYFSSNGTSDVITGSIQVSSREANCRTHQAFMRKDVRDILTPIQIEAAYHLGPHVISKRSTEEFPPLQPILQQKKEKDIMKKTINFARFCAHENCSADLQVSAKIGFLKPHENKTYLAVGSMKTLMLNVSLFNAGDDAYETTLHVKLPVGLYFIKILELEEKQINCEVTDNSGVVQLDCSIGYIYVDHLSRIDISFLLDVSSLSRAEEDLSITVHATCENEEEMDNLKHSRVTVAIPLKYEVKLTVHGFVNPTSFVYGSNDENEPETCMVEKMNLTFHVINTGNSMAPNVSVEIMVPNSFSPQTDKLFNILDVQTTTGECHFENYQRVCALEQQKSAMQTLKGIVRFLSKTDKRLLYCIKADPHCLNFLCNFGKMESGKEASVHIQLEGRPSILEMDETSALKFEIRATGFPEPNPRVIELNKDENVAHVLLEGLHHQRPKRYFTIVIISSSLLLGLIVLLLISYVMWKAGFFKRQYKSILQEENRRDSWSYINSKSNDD
Sequence (P05556 21-798): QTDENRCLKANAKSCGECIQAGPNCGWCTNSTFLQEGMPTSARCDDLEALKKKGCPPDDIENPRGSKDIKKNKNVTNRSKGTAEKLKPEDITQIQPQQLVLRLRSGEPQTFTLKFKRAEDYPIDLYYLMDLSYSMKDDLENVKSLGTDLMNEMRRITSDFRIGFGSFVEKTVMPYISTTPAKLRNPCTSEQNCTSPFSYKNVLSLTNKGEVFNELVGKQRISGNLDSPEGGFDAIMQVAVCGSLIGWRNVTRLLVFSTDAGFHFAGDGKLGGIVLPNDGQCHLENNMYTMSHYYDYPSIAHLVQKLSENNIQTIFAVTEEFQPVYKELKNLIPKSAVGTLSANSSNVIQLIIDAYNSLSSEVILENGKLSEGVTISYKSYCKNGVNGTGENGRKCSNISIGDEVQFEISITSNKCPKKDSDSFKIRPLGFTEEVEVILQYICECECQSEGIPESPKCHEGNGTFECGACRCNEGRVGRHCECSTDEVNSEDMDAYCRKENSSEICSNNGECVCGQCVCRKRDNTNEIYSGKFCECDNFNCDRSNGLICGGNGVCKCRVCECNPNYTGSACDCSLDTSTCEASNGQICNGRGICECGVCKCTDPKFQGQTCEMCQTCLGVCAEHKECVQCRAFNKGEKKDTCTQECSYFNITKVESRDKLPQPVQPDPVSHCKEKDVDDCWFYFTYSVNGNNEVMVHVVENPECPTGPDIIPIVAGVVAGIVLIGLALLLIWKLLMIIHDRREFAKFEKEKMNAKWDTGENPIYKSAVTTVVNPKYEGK
protocol notes: Integrin Adhesion Assay: Protocol 5 (VCAM-coated plate, RPMI-8866 cells with stable LOF mutation of the ITGB7 gene)
Type: cell-based
condition label: RPMI-8866 cells with stable LOF mutation of the ITGB7 gene; read-out: Mean IC50 α4β1 KO^b
pIC50: −log10 of the molar value.

As a guide, the following entries are already answered.
Cn1c(=O)c(-c2cccc3c(C[C@H](NC(=O)c4c(F)cc(NC5COC5)cc4F)C(=O)O)cccc23)c(C(F)(F)F)c2ccccc21 < 6.00
Cn1c(=O)c(-c2cccc3c(C[C@H](NC(=O)C4(C(F)(F)F)CCN(C5COC5)CC4)C(=O)O)cccc23)c(C(F)(F)F)c2ccccc21 7.00 to 8.00
CN(C)Cc1cc(-c2cccc3c(C[C@H](NC(=O)c4c(F)cc(N5CCOC[C@@H]5C(F)(F)F)cc4CN4CCOCC4)C(=O)O)cccc23)c2cnccc2c1 < 6.00
COCCN(c1cc(F)c(C(=O)N[C@@H](Cc2cccc3c(-c4c(C(F)(F)F)c5ccccc5n(C)c4=O)cccc23)C(=O)O)c(F)c1)C1COC1 < 6.00
CCOCCN1CCC(C(=O)N[C@@H](Cc2cccc3c(-c4c(C(F)(F)F)c5ccccc5n(C)c4=O)cccc23)C(=O)O)(C(F)(F)F)CC1 6.00 to 7.00

For the next question, use this compound.
Prompt: Requested read-out: pIC50. Entry: `Cc1cccc(F)c1C(=O)N[C@@H](Cc1cccc2c(-c3c(C(F)(F)F)c4cc(CCN5CC(F)C5)ccc4n(C)c3=O)cccc12)C(=O)O`
Response: < 6.00
